Origin of the recorded values: patent US10265307B2

biological target: Pim-3 (Homo sapiens (Human), UniProt Q86V86)
metric name: IC50

| compound | tested on | meas value |
| --- | --- | --- |
| N[C@H]1CCCN(c2c(NC(=O)c3csc(-c4c(F)cccc4F)n3)cnc3ccccc23)C1 | Pim-3 (Homo sapiens (Human), UniProt Q86V86) | > 40 nM |
| C[C@@H]1C[C@H](N)CN(c2c(NC(=O)c3nc(-c4c(F)cccc4F)c(F)cc3N)cnc3c2CCC3O)C1 (single isomer, unassigned) [46 (Diastereoisomer 1)] | Pim-3 (Homo sapiens (Human), UniProt Q86V86) | ≤ 100 nM |
| C[C@H]1CN(c2c(NC(=O)c3ccc(F)c(-c4c(F)cccc4F)n3)cnc3c2CCC3O)C[C@@H](N)[C@@H]1O (mixture of isomers) [Example 37] | Pim-3 (Homo sapiens (Human), UniProt Q86V86) | ≤ 100 nM |
| Nc1sc(-c2c(F)cccc2F)nc1C(=O)Nc1cnc2c(c1N1CC[C@H](O)[C@H](N)C1)CCC2 (single isomer, unassigned) | Pim-3 (Homo sapiens (Human), UniProt Q86V86) | ≤ 100 nM |

====

The following molecules are shown together with reported IC50 values.
target: Pim-2 (Homo sapiens (Human), UniProt Q9P1W9); assay: Pim-2 kinase assay; assay type: biochemical; details: 1 mM ATP; read-out: Pim2 IC50
Sequence (Q9P1W9 whole entry): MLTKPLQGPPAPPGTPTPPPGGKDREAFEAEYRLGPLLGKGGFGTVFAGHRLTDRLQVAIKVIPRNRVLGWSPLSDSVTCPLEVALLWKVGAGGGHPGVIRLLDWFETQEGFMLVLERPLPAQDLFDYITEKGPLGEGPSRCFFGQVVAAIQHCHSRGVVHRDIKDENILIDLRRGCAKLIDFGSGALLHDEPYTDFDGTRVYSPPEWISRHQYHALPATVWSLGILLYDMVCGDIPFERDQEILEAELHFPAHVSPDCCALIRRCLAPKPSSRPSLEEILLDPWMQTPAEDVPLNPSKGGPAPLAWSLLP

| molecule | IC50 |
| --- | --- |
| Nc1cc(F)c(-c2c(F)cccc2F)nc1C(=O)Nc1cnc2c(c1N1CCC[C@H](N)C1)CCO2 | ≤ 0.1 µM |
| C[C@H]1CN(c2c(NC(=O)c3ccc(F)c(-c4c(F)cccc4F)n3)cnc3c2CCC3O)C[C@@H](N)C1(C)O (single isomer, unassigned) [63 (Diastereoisomer 1)] | ≤ 0.1 µM |
| N[C@H]1CCCN(c2c(NC(=O)c3ccc(F)c(-c4c(F)cccc4F)n3)cnc3c2CCC3)C1 | ≤ 0.1 µM |
| C[C@@H]1C[C@H](N)CN(c2c(NC(=O)c3ccc(F)c(-c4c(F)cc(OC5CCCOC5)cc4F)n3)cnc3c2CCC3O)C1 (single isomer, unassigned) [70 (Diastereoisomer 2)] | ≤ 0.1 µM |
| C[C@@H]1C[C@H](N)CN(c2c(NC(=O)c3ccc(F)c(-c4c(F)cc(C(C)(C)O)cc4F)n3)cnc3c2CCC3O)C1 (single isomer, unassigned) [67 (Diastereoisomer 2)] | ≤ 0.1 µM |
| C[S+]([O-])c1cc(F)c(-c2nc(C(=O)Nc3cnc4c(c3N3CCC[C@H](N)C3)CCC4O)ccc2F)c(F)c1 (single isomer, unassigned) [59 (Diastereoisomer 1)] | 0.1 to 1 µM |
| N[C@H]1CCCN(c2c(NC(=O)c3csc(-c4c(F)cccc4F)n3)cnc3[nH]ncc23)C1 | > 2 µM |

====

molecular target: Pim-2 (Homo sapiens (Human)); assay: Pim-2 kinase assay; assay type: biochemical; settings: 1 mM ATP; read-out: Pim2 IC50
IC50 values, listed per item

| compound | tested on | IC50 |
| --- | --- | --- |
| Nc1sc(-c2c(F)cccc2F)nc1C(=O)Nc1cnc2[nH]ncc2c1N1CCC[C@H](N)C1 | Pim-2 (Homo sapiens (Human)) | > 2 µM |
| C[C@@H]1C[C@H](N)CN(c2c(NC(=O)c3ccc(F)c(-c4c(F)cccc4F)n3)cnc3c2CCC3O)C1 (single isomer, unassigned) [45 (Diastereoisomer 2)] | Pim-2 (Homo sapiens (Human)) | ≤ 0.1 µM |
| CCOc1cc(F)c(-c2nc(C(=O)Nc3cnc4c(c3N3C[C@@H](N)[C@H](O)[C@@H](C)C3)CCC4O)ccc2F)c(F)c1 (single isomer, unassigned) [51 (Diastereoisomer 1)] | Pim-2 (Homo sapiens (Human)) | ≤ 0.1 µM |

====

target: UniProt Q9P1W9; test: Pim-2 kinase assay; format: biochemical; conditions: 1 mM ATP; read-out: Pim2 IC50
pIC50: −log10 of the molar value.
metric name: pIC50

| compound | meas value |
| --- | --- |
| C[C@@H]1C[C@H](N)CN(c2c(NC(=O)c3ccc(F)c(-c4c(F)cccc4F)n3)cnc3c2CCO3)C1 | ≥ 7.00 |
| Nc1sc(-c2c(F)cccc2F)nc1C(=O)Nc1cnc2c(c1N1CC[C@H](O)[C@H](N)C1)CCC2 (single isomer, unassigned) | ≥ 7.00 |
| Nc1sc(-c2c(F)cccc2F)nc1C(=O)Nc1cnc2c(c1N1CCC[C@H](N)C1)CCCN2 | ≥ 7.00 |
| C[C@H]1CN(c2c(NC(=O)c3ccc(F)c(-c4c(F)cccc4F)n3)cnc3c2CCC3O)C[C@@H](N)[C@@H]1O (mixture of isomers) [Example 37] | ≥ 7.00 |
| N[C@H]1CCCN(c2c(NC(=O)c3csc(-c4c(F)cccc4F)n3)cnc3[nH]ccc23)C1 | < 5.70 |
| C[C@@H]1C[C@H](N)CN(c2c(NC(=O)c3ccc(F)c(-c4c(F)cccc4F)n3)cnc3c2CCC3O)C1 (single isomer, unassigned) [45 (Diastereoisomer 1)] | ≥ 7.00 |
| COc1ccc(F)c(-c2nc(C(=O)Nc3cnc4c(c3N3C[C@H](C)C[C@H](N)C3)CCC4O)c(N)s2)c1F (single isomer, unassigned) [54 (Diastereoisomer 2)] | ≥ 7.00 |
| CC(C)(O)c1cc(F)c(-c2nc(C(=O)Nc3cnc4c(c3N3C[C@@H](N)C[C@@H](C(F)(F)F)C3)CCC4O)ccc2F)c(F)c1 (single isomer, unassigned) [72 (Diastereoisomer 1)] | ≥ 7.00 |
| C[C@H]1CN(c2c(NC(=O)c3nc(-c4c(F)cccc4F)c(F)cc3N)cnc3c2CCC3O)C[C@@H](N)[C@@H]1O (single isomer, unassigned) [48 (Diastereoisomer 1)] | 6.00 to 7.00 |
| Nc1cc(F)c(-c2c(F)cccc2F)nc1C(=O)Nc1cnc2c(c1N1CCC[C@H](N)C1)CCCN2 | ≥ 7.00 |
| Nc1ncc(-c2c(F)cccc2F)nc1C(=O)Nc1cnc2c(c1N1CCC[C@H](N)C1)CCC2O (single isomer, unassigned) [62 (Diastereoisomer 2)] | 6.00 to 7.00 |
| N[C@H]1CCCN(c2c(NC(=O)c3csc(-c4c(F)cccc4F)n3)cnc3c2CCC3)C1 | < 5.70 |
| COc1ccc(F)c(-c2nc(C(=O)Nc3cnc4c(c3N3C[C@H](C)C[C@H](N)C3)CCO4)ccc2F)c1F | ≥ 7.00 |
| C[C@H]1CN(c2c(NC(=O)c3ccc(F)c(-c4c(F)cccc4F)n3)cnc3c2CCC3O)C[C@@H](N)C1(C)O (single isomer, unassigned) [63 (Diastereoisomer 2)] | ≥ 7.00 |
| COCc1cc(F)c(-c2nc(C(=O)Nc3cnc4c(c3N3C[C@H](C)C[C@H](N)C3)CCC4O)ccc2F)c(F)c1 (single isomer, unassigned) [64 (Diastereoisomer 1)] | ≥ 7.00 |
